- Tested system: RORc ligand binding domain (Homo sapiens, UniProt P51449)
- Sequence (P51449 269-508 limits assumed): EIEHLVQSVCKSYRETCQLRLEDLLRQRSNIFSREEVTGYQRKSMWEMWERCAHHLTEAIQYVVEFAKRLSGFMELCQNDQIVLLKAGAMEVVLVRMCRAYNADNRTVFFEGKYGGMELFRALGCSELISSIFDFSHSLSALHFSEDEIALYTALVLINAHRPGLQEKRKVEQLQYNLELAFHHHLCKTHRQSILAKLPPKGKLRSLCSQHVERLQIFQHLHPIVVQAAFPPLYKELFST
Decide using IC50 alone. Strictly below 0.02 µM: satisfied. Equal to or above 0.02 µM: not satisfied.

| Smiles representation | Label class |
| --- | --- |
| Cc1nnc(N(C[C@@]23CC[C@@H](c4cc(-c5c(F)cccc5F)nnc42)C3(C)C)C(C)C)o1 | satisfied |
| Cc1nc(C[C@]23CC[C@H](c4cc(-c5ccccc5F)nnc42)C3(C)C)no1 | not satisfied |
| CC1(C)[C@H]2CC[C@]1(CN1CCCS1(=O)=O)c1nnc(-c3c(F)cccc3F)cc12 | not satisfied |
| CC1(C)[C@@H]2CC[C@@]1(C(=O)N1CCCC1)c1nnc(-c3c(F)cccc3F)cc12 | not satisfied |
| CCN(C[C@]12CC[C@H](c3cc(-c4c(F)cccc4F)nnc31)C2(C)C)C(=O)CCC(N)=O | not satisfied |
| Cc1ncc([C@@]23CC[C@@H](c4cc(-c5c(F)cccc5F)nnc42)C3(C)C)o1 | satisfied |
| Cc1ccn(C[C@]23CC[C@H](c4cc(-c5ccccc5F)nnc42)C3(C)C)n1 | not satisfied |
| CN(C)Cc1nnc([C@@]23CC[C@@H](c4cc(-c5c(F)cccc5F)nnc42)C3(C)C)o1 | not satisfied |
